In this section we review reported activation values for a set of compounds.
- target under test: Cellular tumor antigen p53 (Homo sapiens) (UniProt P04637)
- Sequence (P04637 whole entry, looked up): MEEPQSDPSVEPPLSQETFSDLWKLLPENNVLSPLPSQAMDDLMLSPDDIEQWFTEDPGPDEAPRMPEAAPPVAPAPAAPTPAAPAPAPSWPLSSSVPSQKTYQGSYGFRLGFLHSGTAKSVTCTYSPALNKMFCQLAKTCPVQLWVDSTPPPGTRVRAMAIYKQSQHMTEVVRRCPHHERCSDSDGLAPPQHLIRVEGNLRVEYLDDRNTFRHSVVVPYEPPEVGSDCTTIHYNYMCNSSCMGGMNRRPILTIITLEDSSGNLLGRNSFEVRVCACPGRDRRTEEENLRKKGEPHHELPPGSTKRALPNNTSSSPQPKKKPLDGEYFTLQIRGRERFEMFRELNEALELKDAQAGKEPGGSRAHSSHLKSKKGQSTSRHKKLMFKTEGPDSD
- assay info: Primary qHTS for small molecule compounds that upregulate eGFP-tagged delta133p53alpha (in N-terminal) cells. (AID 2060322);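 note: cells pre-induced with doxycycline then dosed without doxycycline; 0% = DMSO vehicle and 100% = reference activator; nearly all actives have a fitted effect of over 75% in size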
- test settings: NCI-H358 eGFP-delta133p53alpha fluorescence, 24 h; stronger effect = higher value
Records with an inconclusive call do not appear.
Numbers only; they are read as %.

Please review the following examples before continuing.
{"columns": ["compound", "activation [%]"],
 "data": [
  ["CCCc1ncc(C(=O)O)s1", -8.37],
  ["C[C@H]1CCN2C[C@]34C[C@@]5(C(=O)Nc6c5ccc5c6OC=CC(C)(C)O5)C(C)(C)C3C[C@]12C(=O)N4C (stereo not given in full)", 5.34],
  ["CC1=C2C[C@H]3O[C@@]3(C)CCC3O[C@@]3(C)C[C@@]2(O)OC1=O (stereo not given in full)", -2.29],
  ["CC(C)CNC(=O)/C=C/CCCCc1ccc2c(c1)OCO2", 10.7],
  ["Oc1cc2c(cc1O)CN(C(=S)NCCc1ccc(Cl)cc1)CCC2", -14.7],
  ["CCC(=O)N[C@H]1CC[C@H](C(=O)N(C)c2ccc(-c3nc4ccccc4o3)cc2)C1", 18],
  ["CC(C)NC[C@H](O)COc1ccc(CC(N)=O)cc1", -18.8],
  ["N[C@H](CSC(c1ccccc1)(c1ccccc1)c1ccccc1)C(=O)O", -3.21],
  ["Fc1ccc(CN(C2=NCCN2)c2c(Cl)cccc2Cl)cc1", -28.1],
  ["Cc1ccc2c(c1)C(N1CCN(C)CC1)=Nc1cccnc1N2", 13.7]
]}

// field: activation; key: `C=CCC1=C[C@]2(OC)[C@H](C)[C@@H](c3ccc(OC)c(OC)c3)O[C@]2(OC)CC1=O` ; value = -3.57

---

- assay info: BET inhibitor-based combinations targeting novel dependencies in MECOM-rearranged (r) AML: UCSD-AML1 cell line (AID 2202235); note: nearly all actives have a fitted effect of over 40% in size
- test settings: UCSD-AML1 AML cells viability, CellTiter-Glo, 48 h; series mostly up to 46 µM
Inconclusive results are not listed. Active and inactive are the calls of the source. Calls follow the shape of the dose curve; as a rule, active = well fitted inhibition curve with a large enough effect; inconclusive = small, poorly fitted or top-dose-only effect; inactive = no such curve, though single readings can be large or run the other way.
Just give me one of these, please: active, inactive

Please review the following examples before continuing.
{"columns": ["molecule", "group label"],
 "data": [
  ["Cc1sc2c(c1C)C(c1ccc(Cl)cc1)=N[C@@H](CC(=O)Nc1ccc(OCCOCCOCCOCCNc3cccc4c3C(=O)N(C3CCC(=O)NC3=O)C4=O)cc1)c1nnc(C)n1-2 (stereo not given in full)", "active"],
  ["CN1CC[C@@H](c2c(O)cc(O)c3c(=O)cc(-c4ccccc4Cl)oc23)[C@@H](O)C1", "active"],
  ["COc1ccc(CC2=NN3C([C@@H](CCc4ccccc4)[C@@H](C)O)=NC(C)C3C(=O)N2)cc1OC (stereo not given in full)", "inactive"],
  ["CCCCC(=O)O[C@]1(C(=O)CO)[C@@H](C)C[C@H]2[C@@H]3CCC4=CC(=O)C=C[C@]4(C)[C@@]3(F)[C@@H](O)C[C@@]21C", "inactive"],
  ["CC[C@H](NC(=O)[C@H](CS(=O)(=O)CC1CC1)N[C@@H](c1ccc(F)cc1)C(F)(F)F)C(=O)C(=O)NC1CC1", "inactive"]
]}

Name the outcome recorded for CCCCNc1ncc(-c2ccc(CN3CCOCC3)cn2)c(NC2CCC(O)CC2)n1 (stereo not given) in the assay.
active
